This section presents compounds with their documented IC50 values.
targetEntity: SHP-2 enzyme (Met1-Leu525) (Homo sapiens, UniProt Q06124)
Construct: synthetized by Origene, Met1-Leu525, cat #TP750155
Sequence (Q06124 1-525): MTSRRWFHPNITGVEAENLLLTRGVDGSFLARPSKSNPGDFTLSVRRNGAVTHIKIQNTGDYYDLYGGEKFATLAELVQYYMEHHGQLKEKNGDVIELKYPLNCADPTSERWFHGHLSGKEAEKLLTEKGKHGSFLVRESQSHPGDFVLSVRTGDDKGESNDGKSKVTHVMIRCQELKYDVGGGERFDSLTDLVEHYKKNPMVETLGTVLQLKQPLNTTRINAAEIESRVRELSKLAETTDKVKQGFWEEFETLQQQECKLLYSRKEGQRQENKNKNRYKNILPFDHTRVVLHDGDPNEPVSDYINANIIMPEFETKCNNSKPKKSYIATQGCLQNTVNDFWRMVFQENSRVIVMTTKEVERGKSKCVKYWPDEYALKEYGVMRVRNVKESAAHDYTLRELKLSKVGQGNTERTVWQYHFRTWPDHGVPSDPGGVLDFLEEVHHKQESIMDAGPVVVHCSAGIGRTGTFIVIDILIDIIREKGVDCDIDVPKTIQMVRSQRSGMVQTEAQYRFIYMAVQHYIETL
assayProtocol: SHP2 inhibition enzymatic assay (DiFMUP substrate, IRS1 peptide activation)
conditionInfo: SHP2 wt; activated by 500 nM IRS1 peptide; 75 μM DiFMUP substrate

[
  {
    "compound": "CN(C)c1ncccc1Sc1cnc2[nH]c(N3CCC4(CC3)Cc3ccccc3[C@H]4N)nc2n1",
    "targetEntity": "SHP-2 enzyme (Met1-Leu525) (Homo sapiens, UniProt Q06124)",
    "IC50": "< 500 nM"
  },
  {
    "compound": "CC1(N)CCN(c2nc3ncc(Sc4csc5cnccc45)nc3[nH]2)CC1",
    "targetEntity": "SHP-2 enzyme (Met1-Leu525) (Homo sapiens, UniProt Q06124)",
    "IC50": "500 to 3000 nM"
  },
  {
    "compound": "CC1(N)CCN(c2nc3nc(Sc4cccc5ccccc45)cnc3[nH]2)CC1",
    "targetEntity": "SHP-2 enzyme (Met1-Leu525) (Homo sapiens, UniProt Q06124)",
    "IC50": "< 500 nM"
  },
  {
    "compound": "N[C@@H]1c2ccccc2CC12CCN(c1nc3nc(Sc4cc(O)ncc4Cl)cnc3[nH]1)CC2",
    "targetEntity": "SHP-2 enzyme (Met1-Leu525) (Homo sapiens, UniProt Q06124)",
    "IC50": "500 to 3000 nM"
  },
  {
    "compound": "CC1(N)CCN(c2nc3ncc(Sc4ccccc4)nc3[nH]2)CC1",
    "targetEntity": "SHP-2 enzyme (Met1-Leu525) (Homo sapiens, UniProt Q06124)",
    "IC50": "500 to 3000 nM"
  },
  {
    "compound": "NC(=O)Cn1c(N2CCC3(CC2)Cc2ccccc2[C@H]3N)nc2nc(Sc3cccnc3C(F)(F)F)cnc21",
    "targetEntity": "SHP-2 enzyme (Met1-Leu525) (Homo sapiens, UniProt Q06124)",
    "IC50": "> 3000 nM"
  }
]

Query compound follows.
Query string: Item: N[C@@H]1c2ccccc2CC12CCN(c1nc3ncc(Sc4cccc5[nH]c(=O)oc45)nc3[nH]1)CC2 Test system: SHP-2 enzyme (Met1-Leu525) (Homo sapiens, UniProt Q06124) Read-out: IC50 Value: ?
Result string: < 500 nM
